Experiment: Plasma concentration in adjuvant-induced arthritis Lewis rat model at 25 mg/kg, po after 4 hrs
Type: ADME, organism-based
Parameters: dose 25 mg/kg, route oral
I'd appreciate it if you could supply concentration at 4 h values for the items below.

# compound, concentration at 4 h
data = [
    ("O=C(O)c1ccc(CCCc2c(CCNS(=O)(=O)Cc3ccc(Cl)c(Cl)c3)n(C(c3ccccc3)c3ccccc3)c3ccc(Cl)cc23)cc1", "1130 ng/mL"),
]

Which concentration at 4 h is listed for `Cc1cccc(C)c1CS(=O)(=O)NCCc1c(CCCc2ccc(C(=O)O)cc2)c2cc(Cl)ccc2n1C(c1ccccc1)c1ccccc1` ?
698 ng/mL

====

Assay: Oral bioavailability in rat
Format: ADME, organism-based
Conditions: in vivo
assay_readout: bioavailability (%)
Give bare numbers, in %.

# compound, bioavailability (%)
records = [
    ("O=C(O)c1ccc(CCCc2c(CCNS(=O)(=O)Cc3ccc(Cl)c(Cl)c3)n(C(c3ccccc3)c3ccccc3)c3ccc(Cl)cc23)cc1", 6),
]

Now, please, on to the next molecule.
# input molecule: `Cc1cccc(C)c1CS(=O)(=O)NCCc1c(CCCc2ccc(C(=O)O)cc2)c2cc(Cl)ccc2n1C(c1ccccc1)c1ccccc1` ; wanted: its bioavailability
4

====

Exercise: state measured concentration at 4 h for each of the compounds provided.
Test: Plasma concentration in adjuvant-induced arthritis Lewis rat model at 5 mg/kg, po after 4 hrs
Type: ADME, organism-based
Set-up: dose 5 mg/kg, route oral
Write the numeric value and follow it with the unit.

# compound, val
rows = [
    ("Cc1ccc(-c2cc(C(F)(F)F)nn2-c2ccc(S(N)(=O)=O)cc2)cc1", "1130 ng/mL"),
    ("O=C(O)c1ccc(CCCc2c(CCNS(=O)(=O)Cc3ccc(Cl)c(Cl)c3)n(C(c3ccccc3)c3ccccc3)c3ccc(Cl)cc23)cc1", "147 ng/mL"),
]

We next turn to a different compound, shown below.
Which concentration at 4 h value belongs to `Cc1cccc(C)c1CS(=O)(=O)NCCc1c(CCCc2ccc(C(=O)O)cc2)c2cc(Cl)ccc2n1C(c1ccccc1)c1ccccc1` ?
69 ng/mL

====

Assay: Inhibition of cytosolic phospholipase A2alpha by GLU micelle assay
Just a reminder that ties go to false (0): only IC50 strictly below 50 nM counts as true (1).

Worked cases, answers included:
# compound, answer_label
measured = [
    ("N#Cc1cccc(CS(=O)(=O)NCCc2c(CCOc3ccc(C(=O)O)cc3)c3cc(Cl)ccc3n2C(c2ccccc2)c2ccccc2)c1", "false (0)"),
    ("O=C(O)CCc1ccc(S(=O)(=O)CCc2c(CCNS(=O)(=O)Cc3ccccc3)n(C(c3ccccc3)c3ccccc3)c3ccc(Cl)cc23)cc1", "true (1)"),
    ("O=C(O)c1ccc(S(=O)(=O)CCc2c(CCNS(=O)(=O)Cc3ccccc3)n(C(c3ccccc3)c3ccccc3)c3ccc(Cl)cc23)cc1", "true (1)"),
    ("O=C(O)c1ccc(OCCc2c(CCNS(=O)(=O)Cc3c(F)cccc3F)n(C(c3ccccc3)c3ccccc3)c3ccc(Cl)cc23)cc1", "false (0)"),
]

Given the entry `O=C(O)c1ccc(Cc2c(CCNS(=O)(=O)Cc3ccccc3)n(C(c3ccccc3)c3ccccc3)c3ccc(Cl)cc23)cc1` , would its reported IC50 be below 50 nM?
false (0)

Dear reviewer, please state whether `O=C(O)CCc1ccc(S(=O)(=O)CCc2c(CCNS(=O)(=O)Cc3ccccc3Cl)n(C(c3ccccc3)c3ccccc3)c3ccc(Cl)cc23)cc1` has IC50 strictly beneath 50 nM.
true (1)
